Measured values drawn from patent US20250228855A1 for this set.

- target desc: PfcProRS (Plasmodium falciparum)
- Sequence (Q8I5R7 whole entry): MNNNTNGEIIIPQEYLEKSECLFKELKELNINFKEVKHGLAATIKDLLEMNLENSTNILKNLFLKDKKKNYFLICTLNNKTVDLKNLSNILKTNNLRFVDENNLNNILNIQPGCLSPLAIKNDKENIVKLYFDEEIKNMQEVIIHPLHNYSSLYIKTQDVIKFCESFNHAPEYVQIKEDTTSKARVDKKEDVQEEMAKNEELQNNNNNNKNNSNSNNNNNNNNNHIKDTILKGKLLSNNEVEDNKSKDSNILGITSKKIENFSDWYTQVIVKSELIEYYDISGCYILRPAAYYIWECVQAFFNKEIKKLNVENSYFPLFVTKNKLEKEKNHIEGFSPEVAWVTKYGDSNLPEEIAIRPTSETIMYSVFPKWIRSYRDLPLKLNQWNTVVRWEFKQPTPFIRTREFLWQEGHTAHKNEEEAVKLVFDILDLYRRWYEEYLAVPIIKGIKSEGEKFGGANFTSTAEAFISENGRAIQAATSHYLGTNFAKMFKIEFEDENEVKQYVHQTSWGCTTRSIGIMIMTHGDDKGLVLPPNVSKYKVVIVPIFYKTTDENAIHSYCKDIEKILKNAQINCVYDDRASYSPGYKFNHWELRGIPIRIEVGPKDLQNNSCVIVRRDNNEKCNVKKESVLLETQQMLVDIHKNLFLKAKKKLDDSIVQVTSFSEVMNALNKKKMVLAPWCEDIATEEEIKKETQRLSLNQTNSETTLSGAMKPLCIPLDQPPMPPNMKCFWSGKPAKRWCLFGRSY
- assay summary: TR-FRET ligand displacement assay with tracer MAT379, PfcProRS
- Type: binding
- test conditions: PfcProRS (KD [nM]) +ATP, 500 μM ATP
metric name: Kd (nM)
Number only, in nM; omit the unit.

Specify measured Kd for O=C(NC1Cc2ccccc2C1)c1nccnc1NC(=O)N1CCCCC1 [NCP26 (3)] . 103

Specify measured Kd for O=C(NC1Cc2ccccc2C1)c1nccnc1NC(=O)C1CCCCC1 [Compound 2, reference compound] . 291

Specify measured Kd for O=C(C[C@H]1NCCC[C@@H]1O)Cn1cnc2cc(Br)c(Cl)cc2c1=O [halofuginone(1), halofuginone, reference compound] . 0.503
